Hey, just so you know, these numbers are from patent US12528815B2.

Molecular target: human adenosine A2A receptor (Homo sapiens, UniProt P29274)
Construct: expressed in transfected cells; host or cells: HEK293 cells infected with BacMam
Sequence (P29274 whole entry): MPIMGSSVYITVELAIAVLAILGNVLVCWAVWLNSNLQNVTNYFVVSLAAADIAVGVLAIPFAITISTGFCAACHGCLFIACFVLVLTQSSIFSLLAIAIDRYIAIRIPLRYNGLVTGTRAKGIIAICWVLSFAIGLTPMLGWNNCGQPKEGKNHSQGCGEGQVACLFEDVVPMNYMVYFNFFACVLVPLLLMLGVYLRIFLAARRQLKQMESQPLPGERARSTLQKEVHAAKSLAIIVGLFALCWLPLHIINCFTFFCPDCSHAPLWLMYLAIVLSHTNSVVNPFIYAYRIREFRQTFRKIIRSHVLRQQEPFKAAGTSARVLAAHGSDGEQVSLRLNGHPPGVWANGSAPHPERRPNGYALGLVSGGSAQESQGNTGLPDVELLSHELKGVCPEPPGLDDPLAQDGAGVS
Assay: Inhibition binding assay, human adenosine A2A receptor membranes, [3H]ZM241385
Settings: 1 nM [3H]ZM241385, HEK293-hA2A membranes, 25° C., 1 h; IC50 converted to Ki with Cheng-Prusoff; read-out: A2A pKi (converted)
READOUT: Ki (nM)

                                   compound  readout  units_symbol  observed_value
0  COC(=O)N1CCCC(NCCn2nc3c(-c4cc(C)nc(C)c4)c(-c4ccccc4)nc(N)n3c2=O)C1 (stereo not shown)       Ki            nM             100
1  Cc1cc(-c2c(-c3ccccc3)nc(N)n3c(=O)n(CC45CC(C4)C5)nc23)cc(CO)n1       Ki            nM            1.26
2  Cc1cc(-c2c(-c3ccccc3)nc(N)n3c(=O)n(CCNC(C)c4nnc5ncccn45)nc23)cc(C)n1 (stereo not shown)       Ki            nM             126
3  [2H]c1c([2H])c([2H])c(-c2nc(N)n3c(=O)n(Cc4ccc(F)c(N)n4)nc3c2-c2cc(C)nc(CO)c2)c([2H])c1[2H]       Ki            nM               2
